Test system: NCI/ADR-RES ovarian
TEST: NCI-60 one-dose screen, 48 h (100 = growth as untreated, 0 = no growth, -100 = all killed)
SETUP_CONDITIONS: 10 µM unless noted
This is part of a sample that, as a whole, favours compounds with a hit. Of some 83,000 tested, about 20% had one in any assay.
Given measured growth, output condition met if it is greater than or equal to 90% and condition not met if not.

**Query** Tell me whether growth is at least 90% here: "Cc1cc(-c2ccc(N=Nc3c(S(=O)(=O)O)cc4cc(S(=O)(=O)O)cc(O)c4c3O)c(C)c2)ccc1N=Nc1c(S(=O)(=O)O)cc2cc(S(=O)(=O)O)cc(O)c2c1O"
**Result** condition met

**Query** Tell me whether growth is at least 90% here: "COc1cc(Cl)cc(-c2nn(C(=O)NCCN3CCOCC3)cc2-c2ccncc2)c1"
**Result** condition not met

**Query** Has CC(SC(C)C(=O)N/N=C/c1cccc(Cl)c1)C(=O)N/N=C\c1cccc(Cl)c1 (configuration not stated) a recorded growth greater than or equal to 90%?
**Result** condition met

**Query** Evaluate CC(=O)C1CCC2C3CC(C)=C4CC(O)CCC4(C)C3CCC12C (configuration not stated) : growth at minimum 90%?
**Result** condition met

**Query** Does "Clc1cc(Cl)cc(-c2cnc3nonc3n2)c1" have a reported growth of at least 90%?
**Result** condition met

**Query** Assess whether reported growth for COc1ccc(C(=O)OC2C(OC3C(O)COC(O[C@H]4C[C@H]5[C@@H]6CC=C7C[C@@H](O)CC[C@]7(C)[C@H]6CC[C@]5(C)[C@H]4[C@H](C)C(=O)CCC(C)C)C3OC(C)=O)OCC(O)C2O)cc1 (some centres not stated) sits at 90% or higher.
**Result** condition not met

----------
Please go through the items and note down their growth.
Test system: UACC-62 melanoma
TEST: NCI-60 one-dose screen, 48 h (100 = growth as untreated, 0 = no growth, -100 = all killed)
SETUP_CONDITIONS: 10 µM unless noted
Compounds without any hit were thinned out: in the full panel of roughly 83,000, 20% have a hit.
One number for each entry, in %.

Consider the reported growth for these molecules:
MOLECULE: C(=Nc1ccc(-c2ccc(N=Cc3ccccc3)cc2)cc1)c1ccccc1
growth [%]: 93.7
//
MOLECULE: Cc1ccc(NC(=O)c2sc3nc4c(cc3c2N)C(=O)CCC4)cc1Cl
growth [%]: 108
//
MOLECULE: COc1ccc(-c2nc3c(c(-c4ccc(Cl)cc4)nn3-c3ccccc3)c(-c3ccc(O)cc3)c2C#N)cc1
growth [%]: 56.9
//
MOLECULE: Cc1cc2nc(CN)[nH]c2cc1C
growth [%]: 113
//
MOLECULE: c1cc2c(cc1-c1cnc3nonc3n1)OCO2
growth [%]: 66
//
MOLECULE: COc1cc(NCCC2CCCCN2)c2ncccc2c1OC (configuration not stated)
growth [%]: 81.1

**Query** Which value of growth has been reported for C=CCOC(=O)C1=C(C)NC2=C(C(=O)CC(C)(C)C2)C1c1ccc(OC)cc1 (configuration not stated) in the records?
**Result** 81.1

----------
System: UACC-62 melanoma
TEST: NCI-60 one-dose screen, 48 h (100 = growth as untreated, 0 = no growth, -100 = all killed)
SETUP_CONDITIONS: 10 µM unless noted
This is part of a sample that, as a whole, favours compounds with a hit. Of some 83,000 tested, about 20% had one in any assay. Active and inactive are the calls of the source. The calls were made as follows: active = growth percent below 10; inactive = the rest.
PROPERTY_LABEL: growth

COMPOUND: Nc1c(Br)cc2c(c1Br)Cc1cc(Cl)ccc1-2
growth: 96.2% (inactive)
//
COMPOUND: COc1ccc2nc3ccccc3c(NCc3ccc(Cl)cc3)c2c1
growth: 64.7% (inactive)
//
COMPOUND: CCOC(=O)c1ccc(NC(=O)CSC(N)=O)cc1
growth: 96.8% (inactive)
//
COMPOUND: CC(=O)Nc1ccc(/C=N/N2CCCCCC2)cc1
growth: 95.9% (inactive)
//
COMPOUND: CCOc1cc(/C=N\NC(=O)C[N+](C)(C)C)ccc1O
growth: 111% (inactive)

Dear reader, for each entry below, please note its growth.
1. CC1(C)CC(=O)c2cc3c(N)c(C(=O)Nc4ccc(Cl)cc4)sc3nc2C1
2. O=C(Nc1ccc([N+](=O)[O-])cc1)c1cc2ccccc2cc1O
3. O=C(C(=O)N1CCCC1)c1cn(CCCn2cc(C(=O)C(=O)N3CCCC3)c3cc(Br)ccc32)c2ccc(Br)cc12
4. CCN(CC)CC(=O)Nc1c(C)cc(C(=O)NN)cc1C
5. Oc1c(C(Nc2cccc3ccccc23)c2ccccc2)ccc2cccnc12 (stereo not given)
6. COc1ncnc2[nH]cc(CN3CCN(c4ccc(F)cc4)CC3)c12

**Result**
1. 105% (inactive)
2. -28.8% (active)
3. 85.1% (inactive)
4. 97.6% (inactive)
5. 14.7% (inactive)
6. 106% (inactive)

For the 4 compounds below, give their growth values.
1. COc1ccc(/C=C/c2nc3ccccc3c(=O)n2-c2ccc(C#Cc3ccc(C(C)(C)C)cc3)cc2C)c(OC)c1
2. Cc1ccncc1NC=O
3. O=C(O)CSc1ccc(NCc2oc(CO)cc(=O)c2O)cc1
4. Nc1c(N)c2ccccc2c2ccccc12

**Result**
["72.6% (inactive)", "101% (inactive)", "102% (inactive)", "95% (inactive)"]

----------
Test system: SF-268 CNS
TEST: NCI-60 one-dose screen, 48 h
SETUP_CONDITIONS: 10 µM unless noted
Compounds without any hit were thinned out: in the full panel of roughly 83,000, 20% have a hit. The source made the active and inactive calls. The calls were made as follows: active = growth percent below 10; inactive = the rest.
// classify into active, inactive

MOLECULE: COC(=O)[C@H](Cc1cn(C)cn1)NC(=O)[C@H](CC(C)C)NC(=O)Nc1cc(C(F)(F)F)cc(C(F)(F)F)c1
CLASS_ASSIGNMENT: active
--
MOLECULE: CCN(CC)c1ccc(/C=N/N=C(N)N)cc1
CLASS_ASSIGNMENT: inactive
--
MOLECULE: Cc1ccccc1C1CC(=O)c2ccccc2C1C (centres undefined)
CLASS_ASSIGNMENT: inactive
--
MOLECULE: O=C(Cc1ccc([N+](=O)[O-])cc1)Oc1ccccc1
CLASS_ASSIGNMENT: inactive
--
MOLECULE: Cc1cc(O)ccc1Sc1ccccc1[N+](=O)[O-]
CLASS_ASSIGNMENT: inactive
--
MOLECULE: CC1=C(O)C(=O)CC1
CLASS_ASSIGNMENT: inactive
--
MOLECULE: CC(C)CCC(=O)[C@@H](C)[C@H]1[C@@H](OC2OCC(O)C(O)C2NS(C)(=O)=O)C[C@H]2[C@@H]3CC=C4C[C@@H](O)CC[C@]4(C)[C@H]3CC[C@]12C (some centres undefined)
CLASS_ASSIGNMENT: active
--
MOLECULE: CC(C)(c1ccccc1)c1cc(O)c(C(C)(C)c2ccccc2)cc1O
CLASS_ASSIGNMENT: inactive

**Query** Recorded call for "CCCCCCCCCCCCNC(=O)N[C@H](C(=O)N[C@H]1/C=C/CCNC(=O)/C=C/[C@H](C)NC1=O)C(C)C" ?
**Result** active

----------
I'd be grateful if you could share measured growth for these entries.
Test system: T-47D breast
TEST: NCI-60 one-dose screen, 48 h (100 = growth as untreated, 0 = no growth, -100 = all killed)
SETUP_CONDITIONS: 10 µM unless noted
About 83,000 compounds went through this panel and 20% of them were active in at least one assay; those are over-represented in the sample as a whole.
One number for each entry, in %.

MOLECULE: C[N+](C)(C)CCCCCCCCCC[N+](C)(C)C
UNIT_SPEC: %
growth: 88.6

I have 3 molecules here; please give me growth for each one.
1. O=C(CSc1nc2c(n1Nc1ccccc1)-c1ccccc1SC2)Nc1nccs1
2. OC(CCCCCCCCC(O)CN1CCc2ccccc2C1)CN1CCc2ccccc2C1 (stereo not given)
3. O=c1c2cc(Cl)ccc2oc2ccc(OCCCCCN3CCCCCC3)cc12

**Result**
97.6
99.6
74.4

Below are 4 molecules. Give each one its growth.
1. CN(C)CCCN1c2ccccc2CCc2ccccc21
2. COc1ccc(-c2nc3ccccc3n3cccc23)cc1
3. CC1(C)CN(CCNc2nccc(-c3c(-c4cccc(O)c4)nc4sccn34)n2)S(=O)(=O)N1
4. O=C1C(Cl)=C(Nc2cccc3ccccc23)C(=O)c2ccccc21

**Result**
[91.8, 107, 75.6, 34.3]

Please state, for each entry, its recorded growth.
1. Clc1nnc2c3ccccc3ccn12
2. COc1ccc(Oc2nc(Nc3ccc(N4CCOCC4)cc3)ncc2NC(=O)Nc2cccc(OC)c2)cc1

**Result**
1. 108
2. 75.2
